Parameter aptazyme ON/OFF ratio: see the listing below.
B1: Pistol ribozyme (parent)
chain: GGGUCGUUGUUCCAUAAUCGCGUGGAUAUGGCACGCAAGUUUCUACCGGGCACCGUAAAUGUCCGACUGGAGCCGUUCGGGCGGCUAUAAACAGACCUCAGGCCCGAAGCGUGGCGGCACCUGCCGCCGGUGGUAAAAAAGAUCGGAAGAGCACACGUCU

variants of: B1; assay: aptazyme ON/OFF ratio, guanine; higher = stronger switching; co-transcriptional cleavage with and without guanine
Just the number, please.

[[record]]
mutant_designation = "U7A U8A G9A U10A U11A C12G C13A"
measured = 1.14

[[record]]
mutant_designation = "G9U U11A C12U C13U"
measured = 1.65

[[record]]
mutant_designation = "U8A G9C U10G U11A C13A"
measured = 1.03

[[record]]
mutant_designation = "U7A U11A C12A"
measured = 1.41


# aptazyme ON/OFF ratio (variant: U7C U8A G9U U10C U11C C13U ) is 1.01

Documented aptazyme ON/OFF ratio of U7A U8G G9C U10A U11G C12G C13U : 1.25
